# study_target: Isdop2 (Ixodes scapularis, UniProt A0ACM8DGL0)
# Sequence (A0ACM8DGL0 entry or part of it): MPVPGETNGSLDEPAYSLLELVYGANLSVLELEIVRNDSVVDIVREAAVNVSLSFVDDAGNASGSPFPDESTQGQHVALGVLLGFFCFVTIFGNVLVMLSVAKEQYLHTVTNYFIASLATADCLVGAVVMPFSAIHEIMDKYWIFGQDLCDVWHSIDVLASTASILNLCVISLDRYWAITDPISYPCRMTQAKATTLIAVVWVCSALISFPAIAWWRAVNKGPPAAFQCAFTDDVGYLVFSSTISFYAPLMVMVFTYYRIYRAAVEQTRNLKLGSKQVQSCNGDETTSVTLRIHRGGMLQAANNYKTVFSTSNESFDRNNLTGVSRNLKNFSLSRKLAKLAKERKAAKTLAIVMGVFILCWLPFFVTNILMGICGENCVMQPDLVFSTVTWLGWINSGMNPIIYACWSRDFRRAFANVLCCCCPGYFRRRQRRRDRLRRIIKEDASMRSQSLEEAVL
# measurement_description: cell-based
reported_property: % Inhibition (of response to dopamine), Isdop2 screen (%)

INSERT INTO assay_data (compound, study_target, readout_value) VALUES
  ('Br.Cc1cccc(C2CN(C)CCc3c2cc(O)c(O)c3Cl)c1 (centres unmarked)', 'Isdop2 (Ixodes scapularis, UniProt A0ACM8DGL0)', 87),
  ('CC(C)[C@H](CO)Nc1nc(Nc2cccc(Cl)c2)c2ncn(C(C)C)c2n1', 'Isdop2 (Ixodes scapularis, UniProt A0ACM8DGL0)', 84),
  ('Cc1nc2sccn2c(=O)c1CCN1CCC(=C(c2ccccc2)c2ccc(F)cc2)CC1', 'Isdop2 (Ixodes scapularis, UniProt A0ACM8DGL0)', 69),
  ('Br.CN1CCc2cc(O)c(O)cc2C(c2ccccc2)C1 (centres unmarked) [SKF 75670 hydrobromide]', 'Isdop2 (Ixodes scapularis, UniProt A0ACM8DGL0)', 68),
  ('CCN(CC)C(=O)N[C@H]1C[C@@H]2c3cccc4[nH]cc(c34)C[C@H]2N(C)C1 [R(+)-Terguride]', 'Isdop2 (Ixodes scapularis, UniProt A0ACM8DGL0)', 68),
  ('CC(C)(C)c1cc(/C=C(\C#N)C(N)=S)cc(C(C)(C)C)c1O', 'Isdop2 (Ixodes scapularis, UniProt A0ACM8DGL0)', 75),
  ('CCn1cnc2c(Nc3cccc(Cl)c3)nc(N[C@@H]3CCCC[C@@H]3N)nc21.Cl [CGP-74514A hydrochloride]', 'Isdop2 (Ixodes scapularis, UniProt A0ACM8DGL0)', 98),
  ('O=C(N[C@@H](Cc1ccccc1)C(=O)CCl)OCc1ccccc1', 'Isdop2 (Ixodes scapularis, UniProt A0ACM8DGL0)', 90);

====

Attribute: % of the SCH23390 effect
# study_target: AaDOP2 (Aedes aegypti)
# measurement_description: LOPAC1280 antagonist screen in HEK-CRELuc-Aadop2 cells
# Type: cell-based
# conditions: 10 μM compound, 300 nM dopamine, quadruplicate
reported_property: % of the SCH23390 effect (%)

INSERT INTO measurements (molecule, study_target, reported_property, readout_value) VALUES
  ('CN1CCN(C2=Nc3ccccc3Oc3ccc(Cl)cc32)CC1', 'AaDOP2 (Aedes aegypti)', '% of the SCH23390 effect', 97),
  ('CC(CN(C)C)CN1c2ccccc2CCc2ccccc21 (racemic)', 'AaDOP2 (Aedes aegypti)', '% of the SCH23390 effect', 87),
  ('CCC(=O)c1ccc2c(c1)N(CCCN(C)C)c1ccccc1S2', 'AaDOP2 (Aedes aegypti)', '% of the SCH23390 effect', 85),
  ('O=C1c2c(O)ccc(O)c2C(=O)c2c(NCCNCCO)ccc(NCCNCCO)c21', 'AaDOP2 (Aedes aegypti)', '% of the SCH23390 effect', 83),
  ('CN1CCc2cc(Cl)c(O)cc2C(c2ccccc2)C1 (centres unmarked)', 'AaDOP2 (Aedes aegypti)', '% of the SCH23390 effect', 83);

====

Attribute: EC50
# study_target: Isdop2 (Ixodes scapularis, UniProt A0ACM8DGL0)
# measurement_description: CRE-Luc reporter assay, HEK cells stably expressing Isdop2
reported_property: EC50 (µM)

INSERT INTO measurements (compound, study_target, measurement_unit, readout_value) VALUES
  ('NC[C@H](O)c1ccc(O)c(O)c1 [Norepinephrine]', 'Isdop2 (Ixodes scapularis, UniProt A0ACM8DGL0)', 'µM', 4.3),
  ('CNC[C@H](O)c1ccc(O)c(O)c1 [Epinephrine]', 'Isdop2 (Ixodes scapularis, UniProt A0ACM8DGL0)', 'µM', 3.5);

====

# Tested on: Ae. aegypti L3 larvae
# conditions: 400 μM, three independent experiments
reported_property: Toxicity to Aedes aegypti larvae (mortality) 24 hours (%)

INSERT INTO measurements (compound, readout_value) VALUES
  ('CN(C)CCCN1c2ccccc2CCc2ccc(Cl)cc21', 70),
  ('CN1CCN(C2=Nc3ccccc3Oc3ccc(Cl)cc32)CC1', 97),
  ('CN1CC2c3ccccc3Oc3ccc(Cl)cc3C2C1 (stereo not shown)', 100),
  ('CNCCCN1c2ccccc2CCc2ccc(Cl)cc21', 40),
  ('CSc1ccc2c(c1)C(N1CCN(C)CC1)Cc1ccccc1S2 (stereo not shown) [Methiothepin]', 100),
  ('CN1C2CCC1CC(OC(c1ccccc1)c1ccccc1)C2 (stereo not shown)', 100),
  ('CN(C)CCCN1c2ccccc2Sc2ccc(Cl)cc21', 100);

====

# Test system: adult male Blatella germanica
# measurement_description: Cockroach contact assay (topical application)
# Type: in vivo
# conditions: 200 mM compound
Classify: T when % Mortality 120 hrs is strictly less than 10%; F when % Mortality 120 hrs is not.

INSERT INTO results (compound, study_target, group_label) VALUES
  ('CCNC(=O)N1CCN(CCCC(c2ccc(F)cc2)c2ccc(F)cc2)CC1 [Amperozide]', 'adult male Blatella germanica', 'T'),
  ('OCCN1CCN(CC/C=C2/c3ccccc3Sc3ccc(C(F)(F)F)cc32)CC1 [cis-(Z)-Flupenthixol]', 'adult male Blatella germanica', 'F'),
  ('COC(=O)N(C(=O)N1CO[C@@]2(C(=O)OC)Cc3cc(Cl)ccc3C2=N1)c1ccc(OC(F)(F)F)cc1', 'adult male Blatella germanica', 'F'),
  ('CN(C)CCC=C1c2ccccc2CCc2ccccc21', 'adult male Blatella germanica', 'F'),
  ('CN(C)CCCN1c2ccccc2Sc2ccc(Cl)cc21', 'adult male Blatella germanica', 'F');

====

Attribute: mortality at 400 µM
# Tested on: Ae. aegypti L3 larvae
# measurement_description: whole plant or invertebrate
# conditions: Aedes aegypti, 72 h, read-out: Toxicity to Aedes aegypti larvae (mortality) 72 hours, 400 μM, L3 larvae, three independent experiments
reported_property: mortality at 400 µM (%)

INSERT INTO measurements (compound, study_target, readout_value) VALUES
  ('CN1C2CCC1CC(OC(c1ccccc1)c1ccccc1)C2 (stereo not drawn)', 'Ae. aegypti L3 larvae', 100),
  ('CNCCCN1c2ccccc2CCc2ccccc21', 'Ae. aegypti L3 larvae', 43),
  ('CN1CCN(CC(=O)N2c3ccccc3C(=O)Nc3cccnc32)CC1 [Pirenzepine]', 'Ae. aegypti L3 larvae', 0),
  ('COCCCC/C(=N\OCCN)c1ccc(C(F)(F)F)cc1', 'Ae. aegypti L3 larvae', 43),
  ('COc1ccc(C(CN(C)C)C2(O)CCCCC2)cc1 (stereo not drawn)', 'Ae. aegypti L3 larvae', 13),
  ('CNCCC(Oc1ccc(C(F)(F)F)cc1)c1ccccc1 (stereo not drawn)', 'Ae. aegypti L3 larvae', 53),
  ('CN1CC2c3ccccc3Oc3ccc(Cl)cc3C2C1 (stereo not drawn)', 'Ae. aegypti L3 larvae', 100),
  ('CSc1ccc2c(c1)C(N1CCN(C)CC1)Cc1ccccc1S2 (stereo not drawn) [Methiothepin]', 'Ae. aegypti L3 larvae', 100),
  ('CN1CCc2cc(Cl)c(O)cc2C(c2ccccc2)C1 (stereo not drawn)', 'Ae. aegypti L3 larvae', 47),
  ('OCCN1CCN(CC/C=C2/c3ccccc3Sc3ccc(C(F)(F)F)cc32)CC1 [cis-(Z)-Flupenthixol]', 'Ae. aegypti L3 larvae', 100),
  ('CN1CCN(C2=Nc3ccccc3Oc3ccc(Cl)cc32)CC1', 'Ae. aegypti L3 larvae', 100),
  ('CN(C)CCCN1c2ccccc2CCc2ccc(Cl)cc21', 'Ae. aegypti L3 larvae', 93),
  ('CN(C)CCC=C1c2ccccc2CCc2ccccc21', 'Ae. aegypti L3 larvae', 93),
  ('CC1(C)C(=O)N(CCN2CCC(C(=O)c3ccc(F)cc3)CC2)c2ccccc21.Cl', 'Ae. aegypti L3 larvae', 3),
  ('CNCC[C@@H](Oc1ccccc1C)c1ccccc1', 'Ae. aegypti L3 larvae', 30),
  ('O=C(c1ccc(F)cc1)C1CCN(CCn2c(=O)[nH]c3ccccc3c2=O)CC1', 'Ae. aegypti L3 larvae', 0),
  ('CCNC(=O)N1CCN(CCCC(c2ccc(F)cc2)c2ccc(F)cc2)CC1 [Amperozide]', 'Ae. aegypti L3 larvae', 93),
  ('CN(C)CCCN1c2ccccc2Sc2ccc(Cl)cc21', 'Ae. aegypti L3 larvae', 100);

====

# study_target: AaDOP2 (Aedes aegypti, UniProt H6D5H2)
# Sequence (H6D5H2 entry or part of it): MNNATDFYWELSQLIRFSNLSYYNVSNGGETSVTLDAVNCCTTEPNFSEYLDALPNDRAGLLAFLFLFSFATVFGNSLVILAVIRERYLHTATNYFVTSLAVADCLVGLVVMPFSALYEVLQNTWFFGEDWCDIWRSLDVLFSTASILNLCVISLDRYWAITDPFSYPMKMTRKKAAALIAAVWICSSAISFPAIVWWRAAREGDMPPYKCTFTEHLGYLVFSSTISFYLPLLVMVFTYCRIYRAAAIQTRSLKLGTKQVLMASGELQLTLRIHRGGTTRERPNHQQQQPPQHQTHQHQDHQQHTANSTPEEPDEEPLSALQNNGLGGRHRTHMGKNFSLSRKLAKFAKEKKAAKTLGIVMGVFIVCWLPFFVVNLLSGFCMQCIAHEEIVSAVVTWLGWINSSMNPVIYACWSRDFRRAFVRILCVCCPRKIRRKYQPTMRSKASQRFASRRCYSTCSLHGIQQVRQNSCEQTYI
# measurement_description: LOPAC1280 antagonist screen in HEK-CRELuc-Aadop2 cells
# Format: cell-based
# conditions: 10 μM compound, 300 nM dopamine, quadruplicate
reported_property: % of the SCH23390 effect (%)

INSERT INTO assay_data (compound, readout_value) VALUES
  ('CN(C)CCCN1c2ccccc2CCc2ccccc21', 96),
  ('O=C(Nc1ccc([N+](=O)[O-])cc1Cl)c1cc(Cl)ccc1O [Niclosamide]', 95),
  ('CC(C)[C@H](CO)Nc1nc(Nc2cccc(Cl)c2)c2ncn(C(C)C)c2n1', 93),
  ('CC[C@@]1(O)C(=O)OCc2c1cc1n(c2=O)Cc2cc3ccccc3nc2-1 [(S)-(+)-Camptothecin]', 93),
  ('CSc1ccc2c(c1)C(N1CCN(C)CC1)Cc1ccccc1S2 (centres unmarked) [Methiothepin]', 99),
  ('Cc1nc2sccn2c(=O)c1CCN1CCC(=C(c2ccccc2)c2ccc(F)cc2)CC1', 90),
  ('OCCN1CCN(CC/C=C2/c3ccccc3Sc3ccc(C(F)(F)F)cc32)CC1 [cis-(Z)-Flupenthixol]', 88),
  ('CN1CCC(=C2c3ccccc3CC(=O)c3sccc32)CC1', 96),
  ('OCCN1CCN(CCCN2c3ccccc3Sc3ccc(Cl)cc32)CC1', 95),
  ('Cc1nc2ccccn2c(=O)c1CCN1CCC(C(=O)c2ccc(F)cc2)CC1', 90),
  ('O=C1C(SCCO)=C(SCCO)C(=O)c2ccccc21', 83),
  ('CN1C2CCC1CC(OC(c1ccccc1)c1ccc(Cl)cc1)C2.Cl (centres unmarked)', 85),
  ('O=C1Cc2c([nH]c3ccc(Br)cc23)-c2ccccc2N1', 83),
  ('CN(C)CCC=C1c2ccccc2CCc2ccccc21', 90),
  ('Oc1cc(O)cc(/C=C/c2ccc(O)c(O)c2)c1', 98),
  ('CCNC(=O)N1CCN(CCCC(c2ccc(F)cc2)c2ccc(F)cc2)CC1 [Amperozide]', 83),
  ('CC1(C)CCC2=C(O1)c1ccccc1C(=O)C2=O', 86),
  ('Cc1nc2sccn2c(=O)c1CCN1CCC(=C(c2ccc(F)cc2)c2ccc(F)cc2)CC1', 83),
  ('CNCCC=C1c2ccccc2CCc2ccccc21', 96),
  ('Oc1ccc(C=Cc2cc(O)cc(O)c2)cc1', 89);
